Test system: NCI-H226 lung
experiment: NCI tumour cell line growth inhibition, 48 h
measuredQuantity: TGI (µM)
// return numeric value only (unit: µM, not printed)

Recorded TGI (compound CC(C)(C)c1cc(C(O)(C(F)(F)F)C(F)(F)F)c2c(c1)C(C(F)(F)F)(C(F)(F)F)OC(C)(C(C)(C)C)N2 (stereo not given) ): 8.53

Others:
Recorded TGI (compound NS(=O)(=O)c1ccc(-n2nc3c(c2-c2ccc(Cl)cc2)Cc2ccccc2-3)cc1 ): 35.4

Recorded TGI (compound Cc1c2c3ccccc3nc-2n(C)c2ccccc12 ): 8.52

Recorded TGI (compound Nc1[nH]nc(Nc2ccc(Cl)cc2)c1P(=O)(c1ccccc1)c1ccccc1 ): 50.2

Recorded TGI (compound Clc1ccc(C(c2ccccc2Cl)C(Cl)Cl)cc1 (stereo not given) ): 39.1

Recorded TGI (compound Cc1ncc(C(=O)Nc2ccc(CN3CCN(C)CC3)c(C(F)(F)F)c2)cc1C#Cc1cnc2cccnn12 ): 1.37
